Every entry's value here was drawn from patent US12630785B2.

assay_text: Capsule perfume leakage in liquid fabric enhancer (LFE), headspace SPME GC/MS
Format: physicochemical
assay_conditions: PRM of Perfume 1 out of Comparative Example 10-1 capsules (per EP2500087B1); LFE Composition 1
measured_attribute: Leakage (as %) after 1 week at 35° C.

# compound, experimental_result
data = [
    ("CC(=O)OC1CC2CC1C1CC=CC21 (stereo not drawn) [Verdyl acetate]", 89),
    ("CC(=O)OC1CCC(C(C)(C)C)CC1 (stereo not drawn) [(4-tert-butylcyclohexyl) acetate]", 85),
    ("CCC(C)(O)CCCC(C)C (stereo not drawn) [Tetrahydro linalool]", 90),
    ("CC(=O)O[C@@H]1C[C@H]2CC[C@]1(C)C2(C)C (racemic) [iso-Bornyl acetate]", 89),
    ("CCOC(=O)C(C)CC (stereo not drawn) [Ethyl 2-methyl butyrate]", 100),
    ("CC12CCC(CC1)C(C)(C)O2", 97),
    ("CC(=O)OC1CCCCC1C(C)(C)C (stereo not drawn) [(2-tert-butylcyclohexyl) acetate]", 91),
    ("CCC(C)CCCC(C)(C)O (stereo not drawn) [Tetrahydro myrcenol]", 88),
    ("CC1=CC(C)C(C=O)CC1 (stereo not drawn)", 94),
]
